Reference source: paper PMC11436758

System: S. aureus (VISA)
TEST NAME: MIC, clinical and laboratory strains
Assay type: cell-based
RECORDED CONDITIONS: S. aureus (VISA) NRS1/1723
REPORTED METRIC: MIC (µg/mL)

[[record]]
chem_smiles = "C/C(=C\\C(=O)OCCCCCCCCC(=O)O)C[C@@H]1OC[C@H](C[C@@H]2O[C@H]2[C@@H](C)[C@H](C)O)[C@@H](O)[C@H]1O"
unit_abbrev = "µg/mL"
readout_relation = "="
value_measured = 0.25

[[record]]
chem_smiles = "CC(C)c1cc(Cl)ccc1-c1cc(-c2nnn[nH]2)c(-c2ccc(Cl)cc2C(C)C)s1"
unit_abbrev = "µg/mL"
readout_relation = "="
value_measured = 2

[[record]]
chem_smiles = "CN[C@H](CC(C)C)C(=O)N[C@H]1C(=O)N[C@@H](CC(N)=O)C(=O)N[C@H]2C(=O)N[C@H]3C(=O)N[C@H](C(=O)N[C@H](C(=O)O)c4cc(O)cc(O)c4-c4cc3ccc4O)[C@H](O)c3ccc(c(Cl)c3)Oc3cc2cc(c3O[C@@H]2O[C@H](CO)[C@@H](O)[C@H](O)[C@H]2O[C@H]2C[C@](C)(N)[C@H](O)[C@H](C)O2)Oc2ccc(cc2Cl)[C@H]1O"
unit_abbrev = "µg/mL"
readout_relation = "="
value_measured = 8

[[record]]
chem_smiles = "CC[C@H]1OC(=O)[C@H](C)[C@@H](O[C@H]2C[C@@](C)(OC)[C@@H](O)[C@H](C)O2)[C@H](C)[C@@H](O[C@@H]2O[C@H](C)C[C@H](N(C)C)[C@H]2O)[C@](C)(O)C[C@@H](C)C(=O)[C@H](C)[C@@H](O)[C@]1(C)O"
unit_abbrev = "µg/mL"
readout_relation = ">"
value_measured = 16

